Reference for the values: a melting point compilation (Tetko et al.; mined from patent text by program, amines drawn as free bases though some values may be those of a salt)

# melting point listing for each entry below

Observe how each entry below is paired with its result.
{"columns": ["COMPOUND", "melting point"],
 "data": [
  ["O=C(Cn1cc(-c2ccc3nnn(Cc4ccc5ncccc5c4)c3n2)cn1)N1CCCC1", "136 to 138 °C"],
  ["COc1ccc(CCCc2cnc(N)nc2N)cc1", "151 to 154 °C"],
  ["CCOC(=O)Nc1ccc(-c2cccs2)s1", "76 °C"],
  ["CC(=O)Nc1ccc(C#N)cc1F", "170 to 172 °C"]
]}

Input: May I ask what melting point has been recorded for Nc1cc(-c2ccc(CO)o2)nn1Cc1ccccc1 ?
Output: 163 °C

Input: I have this compound here, CCOC(=O)c1ccn(-c2ccc(OCC)cc2)n1 , and I need its recorded melting point.
Output: 88 to 90 °C

Input: Field request: melting point | item: COC(=O)CCC(=O)c1ccc(OC)c(CCl)c1
Output: 78 to 80 °C

Input: GET /values?readout=melting point&item= O=c1c2c[nH]c3ccccc3c-2nn1-c1nccs1
Output: > 350 °C

Input: Which melting point is listed for COc1ccc(COC(=O)n2c(S(=O)Cc3ccc(C)cn3)nc3cscc32)cc1 (stereo unspecified) ?
Output: 119 to 120 °C

Input: Bench note: what melting point did CNN(NC)C(=O)Sc1cc(C)ccc1C(=O)OC show?
Output: 79.4 to 80 °C

Input: So what's the measured melting point for this one? CC(C)CCN1C(=O)C2(COc3cc4c(cc32)OCCO4)c2ccccc21 (stereo unspecified)
Output: 134 to 137 °C
